Where do these numbers come from? They come from PubChem BioAssay (EPA / NIEHS).

Read-out: Interleukin 17A (IL17A), IL17A (gene 3605)
protocol: BSK_BT_xIL17A: BioMAP Diversity Plus: BT Assay for Interleukin 17A (IL17A) Biomarker Activity (AID 2284229)
conditionInfo: primary human B cells with PBMC
The source made the active and inactive calls. How the source made its calls: active means hit-call score of the fitted dose curve at least 0.9, where 1 is the maximum; inactive means score below 0.9.
Thanks in advance; please answer with one of these: Y = active, N = inactive

Example entries and their recorded answers appear below.
# outcome recorded in this test, key = OCCN1CN(CCO)CN(CCO)C1 N

# outcome recorded in this test, key = COc1cc(OC)nc(NC(=O)NS(=O)(=O)Nc2ccccc2C(=O)N(C)C)n1 N

# outcome recorded in this test, key = NC(=NCCCCCCN=C(N)/N=C(\N)Nc1ccc(Cl)cc1)/N=C(\N)Nc1ccc(Cl)cc1 Y

In the following, a different compound is considered.
# outcome recorded in this test, key = O=C1c2ccc(O)c(O)c2C(=O)c2c(O)ccc(O)c21 N

----------
Read-out: Interleukin 6 (IL6), IL6 (gene 3569)
protocol: BSK_BT_xIL6: BioMAP Diversity Plus: BT Assay for Interleukin 6 (IL6) Biomarker Activity (AID 2284228)
conditionInfo: primary human B cells with PBMC
Description: BSK_BT is a cell-based, multiplexed-readout assay that uses B cell and peripheral blood mononuclear cells, a human vascular primary cell co-culture, with measurements taken at 24 hours after chemical dosing in a microplate: 96-well plate.BSK_BT_xIL6 is an assay component measured in the BSK_BT assay. […] Using a type of cytokine quantitation reporter, gain or loss-of-signal activity can be used to understand protein changes. […]
Activity calls are given as the source filed them. The calls were made as follows: active = hit-call score of the fitted dose curve at least 0.9, where 1 is the maximum; inactive = score below 0.9.
Thanks in advance; please answer with one of these: Yes for active, No for inactive

Example entries and their recorded answers appear below.
# outcome recorded in this test, key = O=C(O)CCC(F)(F)C(F)(F)C(F)(F)C(F)(F)C(F)(F)F No

# outcome recorded in this test, key = NC(=NCCCCCCN=C(N)/N=C(\N)Nc1ccc(Cl)cc1)/N=C(\N)Nc1ccc(Cl)cc1 Yes

# outcome recorded in this test, key = COc1cc(OC)nc(NC(=O)NS(=O)(=O)Nc2ccccc2C(=O)N(C)C)n1 No

# outcome recorded in this test, key = CC[N+](CC)(CC)Cc1ccccc1 No

# outcome recorded in this test, key = CCOC(=O)CN[C@@H](C(=O)N1CC[C@H]1C(=O)NCc1ccc(/C(N)=N/O)cc1)C1CCCCC1 No

New cases:
# outcome recorded in this test, key = O=C1c2ccc(O)c(O)c2C(=O)c2c(O)ccc(O)c21 No

# outcome recorded in this test, key = CN(Cc1cnc2nc(N)nc(N)c2n1)c1ccc(C(=O)N[C@@H](CCC(=O)O)C(=O)O)cc1 No

# outcome recorded in this test, key = C=CC(C)(CCC=C(C)C)OC(C)=O (centres undefined) No

----------
Read-out: ABC Transporter (ABCC3), ABCC3 (gene 8714)
protocol: LTEA_HepaRG_ABCC3: Life Technologies and Expression Analysis (LTEA) Assay for ABC Transporter (ABCC3) using HepaRG (AID 2283462)
conditionInfo: mRNA level, 48 h; actives raise or lower the signal
Activity calls are given as the source filed them. How the source made its calls: active means hit-call score of the fitted dose curve at least 0.9, where 1 is the maximum; inactive means score below 0.9.
Thanks in advance; please answer with one of these: TRUE (active), FALSE (inactive)

Example entries and their recorded answers appear below.
# outcome recorded in this test, key = OCC(CO)(CBr)CBr FALSE

# outcome recorded in this test, key = N=C(N)c1ccc(OCCCCCOc2ccc(C(=N)N)cc2)cc1 TRUE

# outcome recorded in this test, key = O=C1NS(=O)(=O)c2ccccc21 FALSE

# outcome recorded in this test, key = Cc1[nH]nc2c1N=C(c1ccccc1Cl)c1cc([N+](=O)[O-])ccc1N2 TRUE

New cases:
# outcome recorded in this test, key = CCCCC(CC)C(=O)O (centres undefined) FALSE

# outcome recorded in this test, key = CCCCc1oc2ccccc2c1C(=O)c1cc(I)c(OCCN(CC)CC)c(I)c1 TRUE

# outcome recorded in this test, key = O=C(c1ccccc1)c1ccccc1 FALSE

# outcome recorded in this test, key = CN(C)CCOC(c1ccccc1)c1ccccc1 FALSE

# outcome recorded in this test, key = CCCCCCCCCCCCOS(=O)(=O)O FALSE
